Cited source for all entries: the RNAGym collection of RNA variant scans (doi:10.1073/pnas.2313332121)

For each of the variants below, state its polymerase ribozyme fitness (log ratio).
B1: TPR 5TU (parent)
chain: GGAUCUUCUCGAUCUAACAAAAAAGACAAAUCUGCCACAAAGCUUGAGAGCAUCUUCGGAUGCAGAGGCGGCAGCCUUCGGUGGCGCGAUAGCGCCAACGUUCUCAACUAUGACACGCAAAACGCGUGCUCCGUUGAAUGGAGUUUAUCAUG

# Variants of: B1
# Assay Procedure: polymerase ribozyme fitness, log enrichment relative to wild type (log ratio); higher = more active; in vitro selection for triplet polymerase activity
Variants at the floor of the assay were thinned out.
Number only, no unit.

Sure, the documented polymerase ribozyme fitness (log ratio) for G50C C129U is -3.94

get_value(item= C85U A89U C105U , readout=polymerase ribozyme fitness (log ratio)) returns 0.517

// polymerase ribozyme fitness (log ratio) lookup, variant = A41U G83U G84U A98U A120U G124A , result: -3.95

For record U53A G80A U109A C123U A142G the listed polymerase ribozyme fitness (log ratio) is -3.11

// polymerase ribozyme fitness (log ratio) value for G141U A142C : -3.58
